Origin of measurements: ChEMBL document CHEMBL1138895

# TEST_PROTOCOL: Solubility at pH 2.8
# Format: physicochemical
# CONDITION: buffer
OUTCOME_MEASURE: solubility (µg/mL)
Answers are plain numbers, in µg/mL.

# solubility of CO/C(C)=C1/NC(=O)[C@H]([C@@H](C)O)NC(=O)c2csc(n2)-c2cc(O)c(-c3nc(C(=O)N[C@@H](C)C(=O)NCCCO)cs3)nc2-c2csc(n2)[C@@H]2COC(=O)c3c4c5c(cccc5n3O)COC(=O)[C@@H](O[C@H]3C[C@](C)(O)[C@H](N(C)C)[C@H](C)O3)[C@@H](OC4)[C@H](NC(=O)c3csc1n3)c1nc(cs1)C(=O)N2 = 2700
